# system under test: UniProt Q92769
# Sequence (Q92769 whole entry): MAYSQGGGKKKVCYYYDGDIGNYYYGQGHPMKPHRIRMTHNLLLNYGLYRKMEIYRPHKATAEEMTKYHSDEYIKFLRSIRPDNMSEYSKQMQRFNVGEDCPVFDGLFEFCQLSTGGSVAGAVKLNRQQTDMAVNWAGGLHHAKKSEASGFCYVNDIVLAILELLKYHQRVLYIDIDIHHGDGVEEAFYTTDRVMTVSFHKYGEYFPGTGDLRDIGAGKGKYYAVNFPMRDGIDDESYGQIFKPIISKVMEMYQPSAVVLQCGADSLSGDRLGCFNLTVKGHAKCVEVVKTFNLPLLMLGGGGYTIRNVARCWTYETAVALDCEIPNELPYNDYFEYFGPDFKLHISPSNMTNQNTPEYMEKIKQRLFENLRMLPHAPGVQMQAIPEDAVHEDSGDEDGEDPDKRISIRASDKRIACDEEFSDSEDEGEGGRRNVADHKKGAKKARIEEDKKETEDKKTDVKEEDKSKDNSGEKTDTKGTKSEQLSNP
# measurement protocol: Inhibition of recombinant HDAC2 (unknown origin) incubated for 10 mins using Boc-Lys(acetyl)-AMC fluorogenic substrate by homogeneous fluorescence release assay
pIC50: −log10 of the molar value.
endpoint name: pIC50

For orientation, consider the following solved cases.
COc1ccc(-c2noc(CCCCCCC(=O)Nc3ccccc3N)n2)cc1; 5.41
O=C(CCCCCCc1nc(-c2ccccc2Cl)no1)NO; 5.90

[a] O=C(CCCCCCc1nc(-c2cccc([N+](=O)[O-])c2)no1)C(F)(F)F
[b] Nc1ccccc1NC(=O)CCCCCCc1nc(-c2ccc(Cl)cc2)no1
[c] Nc1ccccc1NC(=O)CCCCCCc1nc(-c2cccs2)no1
[d] O=C(CCCCCCc1nc(-c2cccnc2)no1)NO
[Q] Order field: pIC50 | Direction: descending (largest first) API: response body holds the labels in the requested order.
[A] d, a, c, b
